Experiment description: NCI Yeast Anticancer Drug Screen. Data for the bub3 strain (AID 167)
Condition parameters: S. cerevisiae bub3 mutant strain, at 50.0 µM, hits give high values
This is part of a sample that, as a whole, favours compounds with a hit. Of some 79,000 tested, about 15% had one in any assay.
# growth inhibition listing for each entry below
Please respond with the number in % and leave the unit unwritten.

Q. What value of growth inhibition has been recorded for this entry: "FC(F)(F)c1nc(=S)c2cn[nH]c2[nH]1"
A. 35.5

***
Q. What value of growth inhibition has been recorded for this entry: "BrCCCC1CCCCC1"
A. -14.6

Q. Similarly, COC(=O)c1n[nH]n(Cc2cccs2)c1=O (tested in a mixture with another compound) ?
A. 10.6

Q. Similarly, "C=CCNC(=S)/N=C\C(C(=O)OCC)=C(/O)C(=O)OCC" ?
A. -8.85

Q. Similarly, "COc1cc(NCCCCCCNCC(C)C)c2nccc(C)c2c1" ?
A. 37.6

###

Experiment description: NCI Yeast Anticancer Drug Screen. Data for the bub3 strain (AID 167)
Condition parameters: S. cerevisiae bub3 mutant strain, at 50.0 µM
Compounds without any hit were thinned out: in the full panel of roughly 79,000, 15% have a hit. Calls of active or inactive are those of the source. Cut-off read from the data, not from the text of the source: active = growth inhibition above about 70%; inactive = the rest.
Respond only with the outcome that fits, drawn from active, inactive

Some solved entries appear below for comparison.
Q. Record request — test call for CC1C(NNC(N)=O)Oc2cc3c(cc2C1c1ccccc1O)OCO3 (configuration not stated)
A. inactive

Q. Similarly, "OCCCN1CCCCC1" ?
A. inactive

Q. Similarly, "Cn1ncc2c(NN)nc(Cl)nc21" ?
A. inactive

Q. Similarly, "O=C(O)c1cc2ccccc2o1" ?
A. inactive

Q. Similarly, "Nc1nc(N)nc(CCCCc2nc(N)nc(N)n2)n1" ?
A. inactive

Q. Similarly, CSC1=C(CCC(C)CCCC(C)CCCC(C)CCCC(C)CCCC(C)CCCC(C)C)C(=O)c2sccc2C1=O (configuration not stated) ?
A. inactive

***
Q. Record request — test call for "CS(=O)(=O)C(c1nc2n(c1O)/C(=N/C(=O)Nc1ccc(Cl)cc1)N=N2)c1nc2n(c1O)/C(=N/C(=O)Nc1ccc(Cl)cc1)N=N2"
A. inactive

Q. Similarly, COC(=S)OC1CC(n2cnc3c(N)ncnc32)OC1CO[Si](C)(C)C(C)(C)C (configuration not stated) ?
A. inactive

###

Experiment description: NCI Yeast Anticancer Drug Screen. Data for the bub3 strain (AID 167)
Condition parameters: S. cerevisiae bub3 mutant strain, at 50.0 µM
The panel holds about 79,000 compounds, 15% with a hit somewhere; the sample as a whole holds those more often. The source made the active and inactive calls. Rule as the data show it: active = growth inhibition above about 70%; inactive = the rest.
Respond only with the outcome that fits, drawn from active, inactive

Some solved entries appear below for comparison.
Q. Record request — test call for COc1ccc(NS(=O)c2ccccc2OC)cc1 (stereo not given)
A. inactive

Q. Similarly, "CCCCCCC(=O)OC[n+]1ccc2c(C)c3[nH]c4ccc(OC)cc4c3c(C)c2c1" ?
A. active

Q. Similarly, COC(=O)[C@@]12OC[C@]34[C@H]([C@@H](O)[C@@H]1O)[C@@]1(C)CC(=O)C(O)=C(C)[C@@H]1C[C@H]3OC(=O)[C@H](OC(=O)/C=C(\C)C(C)CO)[C@@H]24 (stereo not given in full) ?
A. inactive

***
Q. Record request — test call for CC1(CCOCc2ccccc2)NC(=O)NC1=O (stereo not given)
A. inactive

Q. Similarly, COC(=O)C1=CON2C3CC4CC(C3)CC(C4)C12C (stereo not given) ?
A. inactive

Q. Similarly, "O=C1c2cc([N+](=O)[O-])ccc2-c2c(Cl)cc(NC(=O)C(F)(F)F)cc21" ?
A. inactive

Q. Similarly, O=C1CSC(c2ccc([N+](=O)[O-])cc2)N1c1nc(-c2ccc3c(c2)CCCC3)cs1 (stereo not given) ?
A. inactive

Q. Similarly, "Cc1nc(N)c(N2CCN(Cc3ccccc3)CC2)c(=O)[nH]1" ?
A. inactive

Q. Similarly, "c1ccc2cc3c(cc2c1)[nH]c1ccccc13" ?
A. inactive

Q. Similarly, CCCCCC1OC1CC1OC1CCCCCCCC(=O)O (stereo not given) ?
A. inactive
